Quick list: growth inhibition per entry.
# protocol: NCI Yeast Anticancer Drug Screen. Data for the mec2-1 strain (AID 157)
# experimentalSetup: S. cerevisiae mec2-1 strain, at 50.0 µM (retest, dose inferred, filed as 5.0), active compounds read high
The panel holds about 79,000 compounds, 15% with a hit somewhere; the sample as a whole holds those more often.
# value in %; strip the unit string

CCN(CC)c1ccc(N=Nc2ccc(-c3nc4ccc[n+](C)c4s3)cc2)cc1    99

Shifting focus to the molecule that follows.
# growth inhibition lookup, item `Clc1ccc(/C=N/Nc2c3ccccc3nc3ccccc23)c(Cl)c1`
87

###

# protocol: NCI Yeast Anticancer Drug Screen. Data for the bub3 strain (AID 167)
# experimentalSetup: S. cerevisiae bub3 mutant strain, at 50.0 µM
Compounds without any hit were thinned out: in the full panel of roughly 79,000, 15% have a hit. Calls of active or inactive are those of the source. Rule as the data show it: active = growth inhibition above about 70%; inactive = the rest.
# output must be one of 1.0 = active, 0.0 = inactive

Cc1c(C2Cc3ccccc3N2C(=O)/C=C\C(=O)O)c2ccccc2n1C (stereo unspecified)    0.0

Give the logged outcome of this assay for the following compound: `O=C(Cc1nc2ccccc2s1)Nc1cccc(C(F)(F)F)c1`
1.0

Give the logged outcome of this assay for the following compound: `CN(C)c1nc(N(C)C)nc([N+](C)(C)C)n1`
1.0

Give the logged outcome of this assay for the following compound: `C=C(CN(C)C)C(=O)c1ccccc1C`
1.0

Give the logged outcome of this assay for the following compound: `c1ccc([P+](Cc2ccc(C[P+](c3ccccc3)(c3ccccc3)c3ccccc3)s2)(c2ccccc2)c2ccccc2)cc1`
1.0

Give the logged outcome of this assay for the following compound: `Cc1cc(Cl)c2cc(Cc3ccc(Br)cc3)ccc2n1`
0.0

###

Quick list: growth inhibition per entry.
# protocol: NCI Yeast Anticancer Drug Screen. Data for the mlh1 rad18 strain (AID 175)
# experimentalSetup: S. cerevisiae mlh1 rad18 strain growth inhibition; at 50.0 µM (retest, dose inferred, filed as 5.0); active compounds read high
Compounds without any hit were thinned out: in the full panel of roughly 79,000, 15% have a hit.
# value in %; strip the unit string

CCc1ccc(/C(C)=N/NC(N)=S)cc1    93

# growth inhibition lookup, item `C/C(C=C(C#N)C#N)=C\c1ccc([N+](=O)[O-])cc1`
89

# growth inhibition lookup, item `O=C1O/C(=C(\Cc2ccccc2)c2ccccc2)N(c2ccccc2)C1=O`
21

###

# protocol: NCI Yeast Anticancer Drug Screen. Data for the bub3 strain (AID 167)
# experimentalSetup: S. cerevisiae bub3 mutant strain, at 5.0 µM (retest, dose inferred, filed as 0.5), active compounds read high
About 79,000 compounds went through this panel and 15% of them were active in at least one assay; those are over-represented in the sample as a whole. The source made the active and inactive calls. Rule as the data show it: active = growth inhibition above about 70%; inactive = the rest.
Quick list: growth inhibition per entry.

COc1ccc(C2CN(C(=O)c3ccccc3)N=C(c3ccccc3)O2)cc1 (stereo not given)    -4% (inactive)
CN(Cc1cnc2nc(N)nc(N)c2n1)c1ccc(C(=O)NC(CCC(=O)O)C(=O)O)cc1C(F)(F)F (stereo not given)    -19% (inactive)
N#CC(C#N)=C/C=C/c1c(Cl)cccc1Cl    25% (inactive)

# growth inhibition lookup, item `CCOC(=O)n1c2ccccc2c(=O)n1CCO`
-28% (inactive)

# growth inhibition lookup, item COC(=O)C(Sc1ccc(Cl)cc1)C1SC(=S)N(C)C1=O (stereo not given)
15% (inactive)

# growth inhibition lookup, item `c1cc(CCSSCCc2ccncc2)ccn1`
1% (inactive)

# growth inhibition lookup, item `CCCCCCCCCCCCNC(=O)c1ccc[n+](Cc2ccc(Cl)c(Cl)c2)c1`
98% (active)

# growth inhibition lookup, item `COc1ccc2c(c1)n([O-])c1cc(C#N)ccc1[n+]2=O`
33% (inactive)

// provenance: PubChem BioAssay (NCI)
